- Test system: K562
- experiment: Cytotoxicity against human K562 cells after 4 days by ELISA reader assay
- Format: functional, cell-based
- experimental setup: K562, 96 h
Sorting guide: entries reporting IC50 beneath 20 µM go in the Fulfilled pile, the rest go in the Not fulfilled pile.

| smiles entry | system tested | assigned class |
| --- | --- | --- |
| Cc1ccsc1-c1cc(-c2ccc(Cl)o2)cc(-c2cccc(Cl)c2)n1 | K562 | Fulfilled |
| Cc1ccsc1-c1cc(-c2ccco2)cc(-c2ccccc2Cl)n1 | K562 | Not fulfilled |
| Cc1ccccc1-c1cc(-c2ccoc2)cc(-c2ccc(Cl)s2)n1 | K562 | Fulfilled |
| Cc1ccc(-c2cc(-c3ccc(Cl)o3)cc(-c3ccc(Cl)s3)n2)cc1 | K562 | Not fulfilled |
| Clc1ccc(-c2cc(-c3ccoc3)cc(-c3ccco3)n2)s1 | K562 | Fulfilled |

* * *

- system tested: DNA topoisomerase 1 (Homo sapiens)
- Sequence (whole entry): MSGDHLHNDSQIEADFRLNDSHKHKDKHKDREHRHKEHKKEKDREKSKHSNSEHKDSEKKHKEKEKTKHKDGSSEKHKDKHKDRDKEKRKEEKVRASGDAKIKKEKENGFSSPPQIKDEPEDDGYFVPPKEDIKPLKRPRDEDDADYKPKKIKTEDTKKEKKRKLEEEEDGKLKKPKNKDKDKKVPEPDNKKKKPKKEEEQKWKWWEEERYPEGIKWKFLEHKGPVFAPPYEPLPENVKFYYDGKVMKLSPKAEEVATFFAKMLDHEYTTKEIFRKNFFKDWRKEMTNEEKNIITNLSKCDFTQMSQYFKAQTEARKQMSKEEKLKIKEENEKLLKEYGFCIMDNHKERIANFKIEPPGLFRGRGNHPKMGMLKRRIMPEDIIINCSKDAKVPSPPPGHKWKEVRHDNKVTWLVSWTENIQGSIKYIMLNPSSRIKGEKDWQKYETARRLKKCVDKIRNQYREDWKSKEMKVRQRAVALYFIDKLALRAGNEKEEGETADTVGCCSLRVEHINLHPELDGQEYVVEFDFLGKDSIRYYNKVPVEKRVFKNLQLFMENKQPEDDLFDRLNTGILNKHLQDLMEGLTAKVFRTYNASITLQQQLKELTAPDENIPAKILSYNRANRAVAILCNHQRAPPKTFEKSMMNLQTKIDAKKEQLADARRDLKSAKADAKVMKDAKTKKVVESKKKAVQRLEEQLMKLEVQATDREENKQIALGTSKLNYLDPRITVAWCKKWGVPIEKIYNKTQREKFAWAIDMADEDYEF
- experiment: Inhibition of human recombinant DNA topoisomerase 1-mediated relaxation of supercoiled pBR322 DNA at 100 uM after 30 mins by agarose gel electrophoresis
Overview of reported inhibition across a group of compounds:

| smiles entry | system tested | inhibition (%) |
| --- | --- | --- |
| Clc1ccc(-c2cc(-c3ccoc3)cc(-c3ccco3)n2)s1 | DNA topoisomerase 1 (Homo sapiens) | 9.6 |
| Cc1ccsc1-c1cc(-c2ccoc2)cc(-c2ccc(Cl)cc2)n1 | DNA topoisomerase 1 (Homo sapiens) | 85.9 |
| Cc1ccsc1-c1cc(-c2ccc(Cl)o2)cc(-c2ccc(Cl)cc2)n1 | DNA topoisomerase 1 (Homo sapiens) | 5.1 |
| Clc1ccc(-c2cc(-c3ccc(Cl)o3)cc(-c3ccc(Cl)s3)n2)cc1 | DNA topoisomerase 1 (Homo sapiens) | 2.2 |
| Cc1ccccc1-c1cc(-c2ccoc2)cc(-c2ccc(Cl)s2)n1 | DNA topoisomerase 1 (Homo sapiens) | 4.6 |
| Cc1ccsc1-c1cc(-c2ccco2)cc(-c2ccccc2Cl)n1 | DNA topoisomerase 1 (Homo sapiens) | 2 |
| Clc1ccc(-c2cc(-c3ccoc3)cc(-c3ccccn3)n2)s1 | DNA topoisomerase 1 (Homo sapiens) | 3.1 |
| Cc1ccc(-c2cc(-c3ccoc3)cc(-c3ccc(Cl)s3)n2)cc1 | DNA topoisomerase 1 (Homo sapiens) | 0 |
| Cc1ccc(-c2cc(-c3ccc(Cl)o3)cc(-c3ccc(Cl)s3)n2)cc1 | DNA topoisomerase 1 (Homo sapiens) | 14.2 |
| Clc1ccc(-c2cc(-c3ccco3)cc(-c3ccc(Cl)s3)n2)cc1 | DNA topoisomerase 1 (Homo sapiens) | 53.1 |
| Cc1ccsc1-c1cc(-c2ccco2)cc(-c2ccc(Cl)cc2)n1 | DNA topoisomerase 1 (Homo sapiens) | 1 |

* * *

- system tested: DNA topoisomerase 2-alpha (Homo sapiens)
- experiment: Inhibition of human DNA topoisomerase 2alpha-mediated relaxation of supercoiled pBR322 DNA at 100 uM after 30 mins by agarose gel electrophoresis

| smiles entry | inhibition (%) |
| --- | --- |
| Cc1ccc(-c2cc(-c3ccoc3)cc(-c3ccc(Cl)s3)n2)o1 | 60.5 |
| Clc1ccc(-c2cc(-c3ccoc3)cc(-c3ccc(Cl)s3)n2)cc1 | 62.7 |
| Clc1ccc(-c2cc(-c3ccco3)nc(-c3ccc(Cl)s3)c2)o1 | 53.8 |
| Clc1ccc(-c2cc(-c3ccco3)cc(-c3ccc(Cl)s3)n2)cc1 | 53.3 |
| Cc1ccc(-c2cc(-c3ccc(Cl)o3)cc(-c3ccc(Cl)s3)n2)cc1 | 58.6 |
| Cc1ccccc1-c1cc(-c2ccoc2)cc(-c2ccc(Cl)s2)n1 | 60.7 |
| Cc1ccsc1-c1cc(-c2ccc(Cl)o2)cc(-c2cccc(Cl)c2)n1 | 51.5 |
| Clc1cccc(-c2cc(-c3ccoc3)cc(-c3ccc(Cl)s3)n2)c1 | 54 |
| Cc1ccsc1-c1cc(-c2ccc(Cl)o2)cc(-c2ccco2)n1 | 61.1 |
| Clc1ccc(-c2cc(-c3ccc(Cl)o3)cc(-c3ccc(Cl)s3)n2)cc1 | 59.8 |
| Cc1ccsc1-c1cc(-c2ccc(Cl)o2)cc(-c2ccc(Cl)cc2)n1 | 59.8 |

* * *

Overview of reported inhibition across a group of compounds:
- system tested: DNA topoisomerase 2-alpha (Homo sapiens) (UniProt P11388)
- Sequence (P11388 whole entry): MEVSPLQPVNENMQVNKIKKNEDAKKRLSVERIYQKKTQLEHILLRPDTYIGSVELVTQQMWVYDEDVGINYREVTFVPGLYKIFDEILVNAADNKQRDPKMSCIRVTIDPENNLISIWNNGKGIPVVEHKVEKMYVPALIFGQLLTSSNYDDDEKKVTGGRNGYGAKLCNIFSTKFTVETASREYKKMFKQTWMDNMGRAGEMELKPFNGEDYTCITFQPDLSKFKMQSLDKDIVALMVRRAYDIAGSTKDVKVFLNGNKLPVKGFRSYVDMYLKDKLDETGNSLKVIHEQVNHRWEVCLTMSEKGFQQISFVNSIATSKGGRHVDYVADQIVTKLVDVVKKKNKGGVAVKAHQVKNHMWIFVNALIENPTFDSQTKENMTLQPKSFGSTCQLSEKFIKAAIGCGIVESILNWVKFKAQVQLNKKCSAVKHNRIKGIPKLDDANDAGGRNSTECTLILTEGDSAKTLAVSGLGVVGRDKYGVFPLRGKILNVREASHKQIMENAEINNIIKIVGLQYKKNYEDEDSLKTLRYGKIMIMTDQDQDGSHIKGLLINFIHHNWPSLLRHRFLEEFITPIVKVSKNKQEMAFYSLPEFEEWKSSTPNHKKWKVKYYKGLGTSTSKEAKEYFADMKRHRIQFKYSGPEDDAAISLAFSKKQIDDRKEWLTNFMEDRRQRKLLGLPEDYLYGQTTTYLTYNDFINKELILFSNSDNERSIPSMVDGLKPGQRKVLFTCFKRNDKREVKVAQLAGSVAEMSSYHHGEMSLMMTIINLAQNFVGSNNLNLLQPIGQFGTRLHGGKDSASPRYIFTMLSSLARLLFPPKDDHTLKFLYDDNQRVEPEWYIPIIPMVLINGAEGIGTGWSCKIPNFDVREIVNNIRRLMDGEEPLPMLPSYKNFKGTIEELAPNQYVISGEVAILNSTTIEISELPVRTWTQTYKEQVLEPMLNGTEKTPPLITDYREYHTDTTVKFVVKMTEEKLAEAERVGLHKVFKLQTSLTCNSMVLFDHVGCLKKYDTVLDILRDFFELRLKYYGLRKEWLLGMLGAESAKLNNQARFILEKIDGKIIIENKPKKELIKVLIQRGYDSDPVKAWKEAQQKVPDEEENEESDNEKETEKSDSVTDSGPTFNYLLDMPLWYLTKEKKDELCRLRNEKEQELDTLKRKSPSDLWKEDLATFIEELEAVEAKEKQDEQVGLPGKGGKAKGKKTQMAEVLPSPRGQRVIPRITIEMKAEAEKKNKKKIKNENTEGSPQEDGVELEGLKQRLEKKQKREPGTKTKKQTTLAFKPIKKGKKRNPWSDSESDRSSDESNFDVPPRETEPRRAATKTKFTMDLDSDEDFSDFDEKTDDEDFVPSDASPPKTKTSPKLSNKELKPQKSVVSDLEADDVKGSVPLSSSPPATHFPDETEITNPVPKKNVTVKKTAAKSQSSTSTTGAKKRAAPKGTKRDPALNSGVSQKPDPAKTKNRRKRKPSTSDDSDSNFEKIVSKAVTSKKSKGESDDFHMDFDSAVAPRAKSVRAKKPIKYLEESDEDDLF
- experiment: Inhibition of human DNA topoisomerase 2alpha-mediated relaxation of supercoiled pBR322 DNA at 100 uM after 30 mins by agarose gel electrophoresis

| smiles entry | system tested | unit name | inhibition |
| --- | --- | --- | --- |
| Clc1ccc(-c2cc(-c3ccoc3)cc(-c3cccnc3)n2)s1 | DNA topoisomerase 2-alpha (Homo sapiens) (UniProt P11388) | % | 60.8 |
| Clc1ccc(-c2cc(-c3ccoc3)cc(-c3ccccn3)n2)s1 | DNA topoisomerase 2-alpha (Homo sapiens) (UniProt P11388) | % | 49.6 |
| Cc1ccsc1-c1cc(-c2ccco2)cc(-c2ccc(Cl)cc2)n1 | DNA topoisomerase 2-alpha (Homo sapiens) (UniProt P11388) | % | 56.3 |
| Cc1ccsc1-c1cc(-c2ccco2)cc(-c2ccccc2Cl)n1 | DNA topoisomerase 2-alpha (Homo sapiens) (UniProt P11388) | % | 33.2 |
| Cc1ccsc1-c1cc(-c2ccc(Cl)o2)cc(-c2cccnc2)n1 | DNA topoisomerase 2-alpha (Homo sapiens) (UniProt P11388) | % | 57.2 |
| Cc1cccc(-c2cc(-c3ccoc3)cc(-c3ccc(Cl)s3)n2)c1 | DNA topoisomerase 2-alpha (Homo sapiens) (UniProt P11388) | % | 50.2 |
| Cc1ccsc1-c1cc(-c2ccoc2)cc(-c2ccco2)n1 | DNA topoisomerase 2-alpha (Homo sapiens) (UniProt P11388) | % | 59.9 |
| Cc1ccc(-c2cc(-c3ccoc3)cc(-c3ccc(Cl)s3)n2)cc1 | DNA topoisomerase 2-alpha (Homo sapiens) (UniProt P11388) | % | 50.3 |
| Cc1ccsc1-c1cc(-c2ccoc2)cc(-c2ccc(Cl)cc2)n1 | DNA topoisomerase 2-alpha (Homo sapiens) (UniProt P11388) | % | 33.8 |
| Clc1ccc(-c2cc(-c3ccoc3)cc(-c3ccco3)n2)s1 | DNA topoisomerase 2-alpha (Homo sapiens) (UniProt P11388) | % | 49.1 |
| Clc1cccc(-c2cc(-c3ccc(Cl)o3)cc(-c3ccc(Cl)s3)n2)c1 | DNA topoisomerase 2-alpha (Homo sapiens) (UniProt P11388) | % | 53.8 |
| Clc1ccc(-c2cc(-c3ccoc3)cc(-c3ccccc3Cl)n2)s1 | DNA topoisomerase 2-alpha (Homo sapiens) (UniProt P11388) | % | 49.5 |

* * *

- System: K562
- experiment: Cytotoxicity against human K562 cells after 4 days by ELISA reader assay
- Format: functional, cell-based
- experimental setup: K562, 96 h
pIC50: −log10 of the molar value. Where a name gives a salt, the structure may show the parent alone.

| compound | pIC50 |
| --- | --- |
| Clc1ccc(-c2cc(-c3ccco3)nc(-c3ccc(Cl)s3)c2)o1 | 4.65 |
| COc1cccc2c1C(=O)c1c(O)c3c(c(O)c1C2=O)C[C@@](O)(C(=O)CO)C[C@@H]3O[C@H]1C[C@H](N)[C@H](O)[C@H](C)O1 [DOXORUBICIN HYDROCHLORIDE] | 5.60 |
| Cc1ccsc1-c1cc(-c2ccco2)cc(-c2ccc(Cl)cc2)n1 | 4.68 |
| Cc1ccsc1-c1cc(-c2ccc(Cl)o2)cc(-c2ccco2)n1 | 4.98 |
| Cc1ccsc1-c1cc(-c2ccc(Cl)o2)cc(-c2ccc(Cl)cc2)n1 | 4.81 |
| Cc1cccc(-c2cc(-c3ccoc3)cc(-c3ccc(Cl)s3)n2)c1 | 4.86 |
| Clc1cccc(-c2cc(-c3ccc(Cl)o3)cc(-c3ccc(Cl)s3)n2)c1 | 4.71 |
| Clc1ccc(-c2cc(-c3ccoc3)cc(-c3ccccn3)n2)s1 | 4.70 |
| Cc1ccsc1-c1cc(-c2ccoc2)cc(-c2ccco2)n1 | 4.63 |
| Clc1ccc(-c2cc(-c3ccc(Cl)o3)cc(-c3ccc(Cl)s3)n2)cc1 | 4.71 |
| Cc1ccsc1-c1cc(-c2ccc(Cl)o2)cc(-c2cccnc2)n1 | 4.91 |
| COc1cc([C@@H]2c3cc4c(cc3[C@@H](O[C@@H]3O[C@@H]5CO[C@@H](C)O[C@H]5[C@H](O)[C@H]3O)[C@H]3COC(=O)[C@H]23)OCO4)cc(OC)c1O [ETOPOSIDE] | 5.62 |
| Clc1cccc(-c2cc(-c3ccoc3)cc(-c3ccc(Cl)s3)n2)c1 | 4.66 |
| Cc1ccsc1-c1cc(-c2ccoc2)cc(-c2ccc(Cl)cc2)n1 | 4.71 |
| Clc1ccc(-c2cc(-c3ccoc3)cc(-c3cccnc3)n2)s1 | 4.73 |
| Cc1ccc(-c2cc(-c3ccoc3)cc(-c3ccc(Cl)s3)n2)cc1 | 4.75 |
| Cc1ccc(-c2cc(-c3ccoc3)cc(-c3ccc(Cl)s3)n2)o1 | 4.90 |
| Clc1ccc(-c2cc(-c3ccoc3)cc(-c3ccccc3Cl)n2)s1 | 4.80 |
| Clc1ccc(-c2cc(-c3ccco3)cc(-c3ccc(Cl)s3)n2)cc1 | 4.98 |
| Clc1ccc(-c2cc(-c3ccoc3)cc(-c3ccc(Cl)s3)n2)cc1 | 4.71 |

Where these numbers come from: ChEMBL document CHEMBL1157684
